target: PI3Kα H1047R (T47D cells) (Homo sapiens, UniProt P42336, H1047R); construct: endogenous in cells; host or cells: T47D cells; assay: PI3Kα cellular assay: pAKT HTRF in T47D cells after EGF stimulation; assay type: cell-based; details: selectivity T47D (H1047R) over SKBR3 (WT), pAKT HTRF
Sequence (P42336 whole entry H1047R): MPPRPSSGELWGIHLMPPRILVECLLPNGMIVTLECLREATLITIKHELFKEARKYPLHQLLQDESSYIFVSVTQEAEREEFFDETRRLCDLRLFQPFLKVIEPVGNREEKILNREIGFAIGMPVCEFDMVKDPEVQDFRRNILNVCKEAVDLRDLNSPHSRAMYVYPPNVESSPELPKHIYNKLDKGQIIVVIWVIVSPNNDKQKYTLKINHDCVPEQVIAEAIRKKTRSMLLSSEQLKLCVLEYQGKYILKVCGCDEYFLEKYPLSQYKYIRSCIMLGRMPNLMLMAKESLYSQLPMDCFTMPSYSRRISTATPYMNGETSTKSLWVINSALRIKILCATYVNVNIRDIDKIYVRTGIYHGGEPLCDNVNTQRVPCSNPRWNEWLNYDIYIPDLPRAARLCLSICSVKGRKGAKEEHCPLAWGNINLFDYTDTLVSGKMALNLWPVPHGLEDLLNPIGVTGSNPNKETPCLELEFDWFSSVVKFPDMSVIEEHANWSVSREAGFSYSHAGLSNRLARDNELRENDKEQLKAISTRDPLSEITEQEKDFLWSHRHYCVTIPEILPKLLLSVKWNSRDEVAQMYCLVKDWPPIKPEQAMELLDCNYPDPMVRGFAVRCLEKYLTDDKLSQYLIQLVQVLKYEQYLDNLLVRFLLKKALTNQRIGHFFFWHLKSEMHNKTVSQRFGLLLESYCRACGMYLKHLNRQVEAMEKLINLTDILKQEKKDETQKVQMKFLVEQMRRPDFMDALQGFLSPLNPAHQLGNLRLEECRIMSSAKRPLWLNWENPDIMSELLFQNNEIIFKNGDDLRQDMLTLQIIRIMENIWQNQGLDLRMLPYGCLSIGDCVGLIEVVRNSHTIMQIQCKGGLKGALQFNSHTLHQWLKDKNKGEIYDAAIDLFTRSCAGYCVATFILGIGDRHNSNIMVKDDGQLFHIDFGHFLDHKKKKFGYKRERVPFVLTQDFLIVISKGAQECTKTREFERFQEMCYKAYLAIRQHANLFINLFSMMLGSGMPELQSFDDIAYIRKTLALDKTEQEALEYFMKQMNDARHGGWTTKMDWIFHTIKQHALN
Sequence (P27986 whole entry partner): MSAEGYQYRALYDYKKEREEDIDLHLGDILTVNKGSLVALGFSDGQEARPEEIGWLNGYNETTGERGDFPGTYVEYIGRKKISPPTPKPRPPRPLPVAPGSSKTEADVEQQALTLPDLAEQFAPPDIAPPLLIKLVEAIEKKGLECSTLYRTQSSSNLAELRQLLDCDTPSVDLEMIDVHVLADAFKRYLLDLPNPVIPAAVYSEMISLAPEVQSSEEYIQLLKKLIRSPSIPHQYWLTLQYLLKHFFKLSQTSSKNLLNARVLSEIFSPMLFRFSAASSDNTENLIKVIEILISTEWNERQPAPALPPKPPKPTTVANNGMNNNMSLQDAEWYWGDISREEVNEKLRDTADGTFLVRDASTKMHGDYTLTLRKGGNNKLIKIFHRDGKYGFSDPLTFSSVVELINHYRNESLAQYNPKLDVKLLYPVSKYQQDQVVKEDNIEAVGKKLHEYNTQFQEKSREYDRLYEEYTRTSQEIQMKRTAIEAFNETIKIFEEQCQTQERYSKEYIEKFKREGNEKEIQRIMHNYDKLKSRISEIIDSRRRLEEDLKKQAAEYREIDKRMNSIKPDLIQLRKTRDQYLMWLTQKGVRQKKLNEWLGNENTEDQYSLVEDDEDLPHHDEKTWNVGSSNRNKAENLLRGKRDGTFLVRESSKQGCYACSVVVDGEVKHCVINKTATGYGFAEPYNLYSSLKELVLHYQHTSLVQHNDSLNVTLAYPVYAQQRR
READOUT_TYPE: T47D pAKT S473 HTRF IC50 (H1047R): T47D (H1047R) selectivity over SKBR3 (WT)

Example compounds with recorded T47D pAKT S473 HTRF IC50 (H1047R): T47D (H1047R) selectivity over SKBR3 (WT):
- COMPOUND: "Cc1cc([C@H](C)Nc2ccccc2C(=O)O)c2nc(-c3ccc4c(c3)c(N)nn4C)cc(=O)n2c1 (single isomer, unassigned)"
  REPORTED_VALUE: "A (A denotes >20-fold)"
- COMPOUND: "CC#Cc1nc2c([C@@H](C)Nc3ccccc3C(=O)O)cc(C)cn2c(=O)c1C"
  REPORTED_VALUE: "C (C denotes ≤5-fold)"
- COMPOUND: "CONC(=O)c1ccc(-c2cc(=O)n3cc(C)cc([C@@H](C)Nc4ccccc4C(=O)O)c3n2)cc1"
  REPORTED_VALUE: "C (C denotes ≤5-fold)"
- COMPOUND: "Cc1cc([C@@H](C)Nc2ccccc2C(=O)O)c2nc(N3CC[Si](C)(C)CC3)cc(=O)n2c1 (single isomer, unassigned) [Compound 431]"
  REPORTED_VALUE: "A (A denotes >20-fold)"
- COMPOUND: "CNC(=O)C#Cc1ccc(-c2nc3c([C@@H](C)Nc4ccccc4C(=O)O)cc(C)cn3c(=O)c2C)cc1F"
  REPORTED_VALUE: "A (A denotes >20-fold)"
- COMPOUND: "Cc1cc(C(C)Nc2ccccc2C(=O)O)c2nc(C3=CCC(C4CN(C)C4)C=C3)c(C)c(=O)n2c1 (stereo not shown)"
  REPORTED_VALUE: "C (C denotes ≤5-fold)"

Let's switch to this compound now.
Specify reported T47D pAKT S473 HTRF IC50 (H1047R): T47D (H1047R) selectivity over SKBR3 (WT) for the compound shown: Cc1cc(C(C)Nc2ccccc2C(=O)O)c2nc(-c3ccncc3)cc(=O)n2c1 (stereo not shown) [Compound 267] A (A denotes >20-fold)

* * *

molecular target: PI3Kα H1047R (T47D cells) (Homo sapiens, UniProt P42336, H1047R); construct: endogenous in cells; host or cells: T47D cells; experiment: PI3Kα cellular assay: pAKT HTRF in T47D cells after EGF stimulation; assay type: cell-based; settings: selectivity T47D (H1047R) over SKBR3 (WT), pAKT HTRF
READOUT_TYPE: T47D pAKT S473 HTRF IC50 (H1047R): T47D (H1047R) selectivity over SKBR3 (WT)

Example molecules with recorded T47D pAKT S473 HTRF IC50 (H1047R): T47D (H1047R) selectivity over SKBR3 (WT):
- MOLECULE: "Cc1cc(C(C)Nc2ccccc2C(N)=O)c2nc(-c3ccnc(C4CC4)c3)c(C)c(=O)n2c1 (stereo not drawn) [Compound 1090]"
  TEST_SYSTEM: "PI3Kα H1047R (T47D cells) (Homo sapiens, UniProt P42336, H1047R)"
  REPORTED_VALUE: "A (A denotes >20-fold)"
- MOLECULE: "Cc1cc(C(C)Nc2ccccc2C(=O)O)c2nc(-c3cnc4c(c3)c(C)nn4C)c(C)c(=O)n2c1 (stereo not drawn)"
  TEST_SYSTEM: "PI3Kα H1047R (T47D cells) (Homo sapiens, UniProt P42336, H1047R)"
  REPORTED_VALUE: "A (A denotes >20-fold)"
- MOLECULE: "Cc1cc([C@H](C)Nc2ccccc2C(=O)O)c2nc(-c3cnc(C#N)c(Cl)c3)c(C)c(=O)n2c1"
  TEST_SYSTEM: "PI3Kα H1047R (T47D cells) (Homo sapiens, UniProt P42336, H1047R)"
  REPORTED_VALUE: "C (C denotes ≤5-fold)"
- MOLECULE: "CC[C@H](Nc1ccccc1C(=O)O)c1cc(C)cn2c(=O)cc(N3CCOCC3)nc12"
  TEST_SYSTEM: "PI3Kα H1047R (T47D cells) (Homo sapiens, UniProt P42336, H1047R)"
  REPORTED_VALUE: "C (C denotes ≤5-fold)"
- MOLECULE: "Cc1cc([C@H](C)Nc2ccccc2C(N)=O)c2nc(-c3ccc(C4CC4)nc3)c(C)c(=O)n2c1"
  TEST_SYSTEM: "PI3Kα H1047R (T47D cells) (Homo sapiens, UniProt P42336, H1047R)"
  REPORTED_VALUE: "C (C denotes ≤5-fold)"
- MOLECULE: "Cc1cc([C@H](C)Oc2ccccc2C(=O)O)c2nc(-c3cccc(F)c3)c(C)c(=O)n2c1"
  TEST_SYSTEM: "PI3Kα H1047R (T47D cells) (Homo sapiens, UniProt P42336, H1047R)"
  REPORTED_VALUE: "C (C denotes ≤5-fold)"

Respectfully, I request T47D pAKT S473 HTRF IC50 (H1047R): T47D (H1047R) selectivity over SKBR3 (WT) for each entry included below.
1. Cc1ccc(N[C@H](C)c2cc(C)cn3c(=O)c(C)c(-c4cccc(F)c4)nc23)c(C(=O)O)c1
2. CCc1c(-c2ccc(F)cc2)nc2c([C@@H](C)Nc3ccccc3C(=O)O)cc(C)cn2c1=O
3. Cc1cc(C(C)Nc2ccnnc2C(=O)O)c2nc(N3CCOCC3)cc(=O)n2c1 (stereo not drawn)
4. Cc1cc(C(C)Nc2ccccc2C(=O)O)c2nc(-c3ccc(C4CNC4)nc3)c(C)c(=O)n2c1 (stereo not drawn)

1: C (C denotes ≤5-fold); 2: A (A denotes >20-fold); 3: C (C denotes ≤5-fold); 4: C (C denotes ≤5-fold)

Respectfully, I request T47D pAKT S473 HTRF IC50 (H1047R): T47D (H1047R) selectivity over SKBR3 (WT) for each entry included below.
1. Cc1cc([C@H](C)Nc2ccccc2C(=O)O)c2nc(-c3ccc4ccnn4c3)c(C)c(=O)n2c1
2. Cc1cc([C@H](C)Nc2ccccc2C(=O)O)c2nc(N3Cc4ccccc4C3)cc(=O)n2c1 [Compound 403]
3. Cc1cc([C@@H](C)Nc2ccccc2C(=O)O)c2nc(N3CC[Si](C)(C)CC3)cc(=O)n2c1 [Compound 446]
4. Cc1cc(C(C)Nc2ccccc2S(N)(=O)=O)c2nc(-c3ccc(F)cc3)cc(=O)n2c1 (stereo not drawn) [Compound 586]
5. CC(=O)N1CCC(c2ccc(-c3nc4c([C@@H](C)Nc5ccccc5C(=O)O)cc(C)cn4c(=O)c3C)cc2)CC1

1: C (C denotes ≤5-fold); 2: C (C denotes ≤5-fold); 3: C (C denotes ≤5-fold); 4: C (C denotes ≤5-fold); 5: A (A denotes >20-fold)

Respectfully, I request T47D pAKT S473 HTRF IC50 (H1047R): T47D (H1047R) selectivity over SKBR3 (WT) for each entry included below.
1. Cc1cc(C(C)Nc2ccccc2C(=O)O)c2nc(C3CCC(C)(C)CC3)cc(=O)n2c1 (stereo not drawn)
2. Cc1cc(C(C)Nc2ccccc2S(N)(=O)=O)c2nc(-c3cc(C)c4oc(=O)[nH]c4c3)cc(=O)n2c1 (stereo not drawn) [Compound 570]
3. Cc1cc([C@H](C)Nc2ccccc2C(=O)O)c2nc(-c3ccc(C4CCOCC4)nc3)c(C)c(=O)n2c1
4. Cc1cc([C@H](C)Nc2ccccc2C(=O)O)c2nc(-c3ccnc(C)c3)c(C)c(=O)n2c1
5. Cc1cc([C@@H](C)Nc2ccccc2C(=O)O)c2nc(N3CCCCC3)cc(=O)n2c1

A (A denotes >20-fold)
A (A denotes >20-fold)
C (C denotes ≤5-fold)
C (C denotes ≤5-fold)
A (A denotes >20-fold)

Respectfully, I request T47D pAKT S473 HTRF IC50 (H1047R): T47D (H1047R) selectivity over SKBR3 (WT) for each entry included below.
1. Cc1cccc(-c2nc3c(C(C)Nc4ccccc4C(=O)O)cc(C)cn3c(=O)c2C(C)C)c1 (stereo not drawn)
2. Cc1cc([C@H](C)Nc2ccccc2C(=O)O)c2nc(-c3cnc(C4CCOCC4)nc3)c(C)c(=O)n2c1

["A (A denotes >20-fold)", "C (C denotes ≤5-fold)"]

Respectfully, I request T47D pAKT S473 HTRF IC50 (H1047R): T47D (H1047R) selectivity over SKBR3 (WT) for each entry included below.
1. Cc1cc([C@H](C)Nc2ccccc2S(N)(=O)=O)c2nc(-c3ccc(C4CCOCC4)nc3)c(C)c(=O)n2c1
2. Cc1cc(C(C)Nc2ccccc2S(N)(=O)=O)c2nc(-c3cccc(F)c3)c(C)c(=O)n2c1 (stereo not drawn)
3. Cc1cc([C@@H](C)Nc2ccccc2S(N)(=O)=O)c2nc(N3Cc4cccnc4C3)c(C)c(=O)n2c1
4. COc1ccc(-c2nc3c([C@H](C)Nc4ccccc4C(=O)O)cc(C)cn3c(=O)c2C)cc1

1. A (A denotes >20-fold)
2. A (A denotes >20-fold)
3. A (A denotes >20-fold)
4. C (C denotes ≤5-fold)

Respectfully, I request T47D pAKT S473 HTRF IC50 (H1047R): T47D (H1047R) selectivity over SKBR3 (WT) for each entry included below.
1. Cc1cc([C@H](C)Nc2ccccc2C(=O)O)c2nc(-c3ccc4c(c3)CC(=O)N4)cc(=O)n2c1
2. Cc1cc([C@@H](C)Nc2ccccc2C(N)=O)c2nc(-c3ccc(C4CC4)nc3)c(C)c(=O)n2c1

1. A (A denotes >20-fold)
2. A (A denotes >20-fold)

The reported measurements were obtained from patent US20260132129A1.
